Some compounds, each annotated with its measured IC50.
# Tested on: KBV-1 (variant that overexpresses efflux transporter MDR1)
# protocol_description: Cytotoxicity on KBV-1 (overexpresses MDR1)
# Assay type: cell-based
# number only, unit nM dropped from output

| compound | value_type | recorded_value |
| --- | --- | --- |
| COc1cc2c(C(=O)NCC(C)(C)N(C)C)cc3c4cc5c(cc4ncc3c2cc1OC)OCO5 [Compound 31] | IC50 | 30 |

--- query ---
Give the measured IC50 of COc1cc2c(C(=O)NCC(C)(C)N(Cc3ccccc3)Cc3ccccc3)cc3c4cc5c(cc4ncc3c2cc1OC)OCO5 [Compound 32] .
2900

---

# System: BCRP
# protocol_description: Cytotoxicity on KBH5.0 (overexpresses BCRP)
# Type: cell-based
# assay_setup: human, KBH5.0 cells (KB3-1 variant that overexpresses BCRP); KBH5.0, overexpresses BCRP; read-out: Cytotoxicity KBH5.0
value_type: IC50 at 4 days
Put down the number, then write its unit next to it.

Give the measured IC50 at 4 days of CC[C@@]1(O)C(=O)OCc2c1cc1n(c2=O)Cc2cc3ccccc3nc2-1 [CPT, Camptothecin, reference compound] .
26 nM

---

# system_tested: human topoisomerase I (Homo sapiens, UniProt P11387)
# Construct: unnamed fusion partner (recombinant fusion protein, T7 expression system); made in house; host or cells: Escherichia coli
# Sequence (P11387 whole entry, the tested form may be a part): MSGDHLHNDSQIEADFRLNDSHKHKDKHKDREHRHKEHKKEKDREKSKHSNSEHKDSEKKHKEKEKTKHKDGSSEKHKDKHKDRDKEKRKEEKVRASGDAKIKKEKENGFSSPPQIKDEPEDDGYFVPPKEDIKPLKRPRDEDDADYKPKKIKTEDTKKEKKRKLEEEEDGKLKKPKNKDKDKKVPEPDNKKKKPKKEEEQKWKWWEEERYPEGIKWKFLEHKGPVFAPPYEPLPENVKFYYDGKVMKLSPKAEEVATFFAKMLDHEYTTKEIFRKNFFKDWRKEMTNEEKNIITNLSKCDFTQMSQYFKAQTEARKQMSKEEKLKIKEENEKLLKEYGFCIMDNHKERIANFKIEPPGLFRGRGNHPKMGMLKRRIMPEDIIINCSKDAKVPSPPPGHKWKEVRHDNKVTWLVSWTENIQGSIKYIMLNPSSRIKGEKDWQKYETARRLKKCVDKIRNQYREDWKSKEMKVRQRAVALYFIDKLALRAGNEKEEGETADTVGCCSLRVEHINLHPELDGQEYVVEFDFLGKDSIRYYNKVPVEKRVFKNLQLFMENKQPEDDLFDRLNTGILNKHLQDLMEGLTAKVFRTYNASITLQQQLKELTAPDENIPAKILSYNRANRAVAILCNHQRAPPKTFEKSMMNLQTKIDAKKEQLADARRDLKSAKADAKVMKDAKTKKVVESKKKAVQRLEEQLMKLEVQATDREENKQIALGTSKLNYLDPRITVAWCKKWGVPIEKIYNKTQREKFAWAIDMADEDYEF
# protocol_description: Test A. Topoisomerase I-mediated DNA cleavage assay
# Assay type: biochemical
# assay_setup: Relative Effective Concentration; relative to camptothecin arbitrarily assumed as 0.2; same 10% cleavage on plasmid DNA
Please enter Met where TOP1 Mediated DNA Cleavage (REC Value) is greater than or equal to 1, and Not met where it is lower.

Form field: TOP1 Mediated DNA Cleavage (REC Value) at least 1? Entry: COc1cc2c(C(=O)NCC(C)(C)N(Cc3ccccc3)Cc3ccccc3)cc3c4cc5c(cc4ncc3c2cc1OC)OCO5
Met

Form field: TOP1 Mediated DNA Cleavage (REC Value) at least 1? Entry: COc1cc2c(C(=O)NCCN(C)C)cc3c4cc5c(cc4ncc3c2cc1OC)OCO5 [Compound 206, reference compound]
Not met

Form field: TOP1 Mediated DNA Cleavage (REC Value) at least 1? Entry: COc1cc2cc(C(=O)NCCN(C)C)c3c4cc5c(cc4ncc3c2cc1OC)OCO5 [Compound 216, reference compound]
Not met

Form field: TOP1 Mediated DNA Cleavage (REC Value) at least 1? Entry: CC[C@@]1(O)C(=O)OCc2c1cc1n(c2=O)Cc2cc3ccccc3nc2-1 [CPT, Camptothecin, reference compound]
Not met

Form field: TOP1 Mediated DNA Cleavage (REC Value) at least 1? Entry: COc1cc2cc(C(=O)NCCC(C)(C)N(C)C)c3c4cc5c(cc4ncc3c2cc1OC)OCO5
Not met

Form field: TOP1 Mediated DNA Cleavage (REC Value) at least 1? Entry: COc1cc2c(C(=O)NCC(C)(C)N)cc3c4cc5c(cc4ncc3c2cc1OC)OCO5
Met

Form field: TOP1 Mediated DNA Cleavage (REC Value) at least 1? Entry: COc1cc2c(C(=O)NCC(C)(C)N(C)C)cc3c4cc5c(cc4ncc3c2cc1OC)OCO5
Not met

Form field: TOP1 Mediated DNA Cleavage (REC Value) at least 1? Entry: COc1cc2c(C(=O)NCCC(C)(C)N(C)C)cc3c4cc5c(cc4ncc3c2cc1OC)OCO5
Met

Form field: TOP1 Mediated DNA Cleavage (REC Value) at least 1? Entry: COc1cc2cc(C(=O)NCCCC(C)(C)N(C)C)c3c4cc5c(cc4ncc3c2cc1OC)OCO5
Met

Form field: TOP1 Mediated DNA Cleavage (REC Value) at least 1? Entry: COc1cc2c(C(=O)NCCCC(C)(C)N(C)C)cc3c4cc5c(cc4ncc3c2cc1OC)OCO5
Met

Form field: TOP1 Mediated DNA Cleavage (REC Value) at least 1? Entry: COc1cc2cc(C(=O)NCC(C)(C)N(C)C)c3c4cc5c(cc4ncc3c2cc1OC)OCO5
Not met

---

# System: P388 mouse leukemia cell line
# protocol_description: Test B. MTT cytotoxicity assay, P388
# Assay type: cell-based
# assay_setup: Mus musculus, P388, 96 h, read-out: Cytotoxicity IC50 P388
# Description: Test B. Cytotoxic Assays (Cancer Cell Lines and Efflux Transporter Cell Lines) The cytotoxicity was determined using the MTT-microtiter plate tetrazolinium cytotoxicity assay (MTA). The human lymphoblast RPMI 8402 and its camptothecin-resistant variant cell line, CPT-K5 was provided by Dr. Toshiwo Andoh (Aichi Cancer Center Research Institute, Nagoya, Japan). […]
Some compounds, each annotated with its measured pIC50.
Please report pIC50 as the negative decimal logarithm of the molar concentration, giving only the number.

| compound | pIC50 |
| --- | --- |
| CC[C@@]1(O)C(=O)OCc2c1cc1n(c2=O)Cc2cc3c(CN(C)C)c(O)ccc3nc2-1 [Topotecan, topotecan, reference compound] | 7.35 |
| COc1cc2cc(C(=O)NCCCC(C)(C)N(C)C)c3c4cc5c(cc4ncc3c2cc1OC)OCO5 | 6.55 |
| COc1cc2c(C(=O)NCCC(C)(C)N(C)C)cc3c4cc5c(cc4ncc3c2cc1OC)OCO5 | 7.05 |
| COc1cc2c(C(=O)NCCCC(C)(C)N(C)C)cc3c4cc5c(cc4ncc3c2cc1OC)OCO5 | 6.74 |

--- query ---
Give the measured pIC50 of COc1cc2cc(C(=O)NCCN(C)C)c3c4cc5c(cc4ncc3c2cc1OC)OCO5 [Compound 216, reference compound] .
7.82

---

# Tested on: P388/CPT45 (CPT-resistant TOP1-deficient variant of P388)
# protocol_description: Test B. MTT cytotoxicity assay, P388/CPT45
# Format: cell-based, mouse
value_type: IC50 (nM)
# number only, unit nM dropped from output

Give the measured IC50 of COc1cc2c(C(=O)NCC(C)(C)N(Cc3ccccc3)Cc3ccccc3)cc3c4cc5c(cc4ncc3c2cc1OC)OCO5 [Compound 32] .
1300

---

# System: P388 mouse leukemia cell line
# protocol_description: Test B. MTT cytotoxicity assay, P388
# Format: cell-based
# assay_setup: Mus musculus, P388, 96 h, read-out: Cytotoxicity IC50 P388
value_type: pIC50
Please report pIC50 as the negative decimal logarithm of the molar concentration, giving only the number.

Which pIC50 is reported with P388 mouse leukemia cell line for this entry: COc1cc2cc(C(=O)NCCC(C)(C)N(C)C)c3c4cc5c(cc4ncc3c2cc1OC)OCO5 [Compound 44] ?
6.57

Which pIC50 is reported with P388 mouse leukemia cell line for this entry: COc1cc2cc(C(=O)NCC(C)(C)N(C)C)c3c4cc5c(cc4ncc3c2cc1OC)OCO5 [Compound 34] ?
8.70

Which pIC50 is reported with P388 mouse leukemia cell line for this entry: COc1cc2c(C(=O)NCCN(C)C)cc3c4cc5c(cc4ncc3c2cc1OC)OCO5 [Compound 206, reference compound] ?
8.52

Which pIC50 is reported with P388 mouse leukemia cell line for this entry: COc1cc2c(C(=O)NCC(C)(C)N)cc3c4cc5c(cc4ncc3c2cc1OC)OCO5 [Compound 33] ?
7.70

---

Some molecules, each annotated with its measured IC50 at 4 days.
# Tested on: BCRP
# protocol_description: Cytotoxicity on KBH5.0 (overexpresses BCRP)
# Format: cell-based
# assay_setup: human
# number only, unit µM dropped from output

| molecule | system_tested | unit_abbrev | IC50 at 4 days |
| --- | --- | --- | --- |
| COc1cc2c(C(=O)NCCN(C)C)cc3c4cc5c(cc4ncc3c2cc1OC)OCO5 [Compound 206, reference compound] | BCRP | µM | 0.06 |
| COc1cc2c(C(=O)NCCC(C)(C)N(C)C)cc3c4cc5c(cc4ncc3c2cc1OC)OCO5 [Compound 42] | BCRP | µM | 0.16 |
| COc1cc2cc(C(=O)NCCN(C)C)c3c4cc5c(cc4ncc3c2cc1OC)OCO5 [Compound 216, reference compound] | BCRP | µM | 0.2 |
| COc1cc2c(C(=O)NCC(C)(C)N)cc3c4cc5c(cc4ncc3c2cc1OC)OCO5 [Compound 33] | BCRP | µM | 0.19 |
| CC[C@@]1(O)C(=O)OCc2c1cc1n(c2=O)Cc2cc3c(CN(C)C)c(O)ccc3nc2-1 [Topotecan, topotecan, reference compound] | BCRP | µM | 0.44 |

Give the measured IC50 at 4 days of COc1cc2c(C(=O)NCCCC(C)(C)N(C)C)cc3c4cc5c(cc4ncc3c2cc1OC)OCO5 [Compound 43] .
0.6

Give the measured IC50 at 4 days of COc1cc2cc(C(=O)NCCCC(C)(C)N(C)C)c3c4cc5c(cc4ncc3c2cc1OC)OCO5 [Compound 45] .
0.85

Give the measured IC50 at 4 days of COc1cc2cc(C(=O)NCCC(C)(C)N(C)C)c3c4cc5c(cc4ncc3c2cc1OC)OCO5 [Compound 44] .
0.47

Give the measured IC50 at 4 days of COc1cc2cc(C(=O)NCC(C)(C)N(C)C)c3c4cc5c(cc4ncc3c2cc1OC)OCO5 [Compound 34] .
0.01
